Biological target: T1, human epidermal growth factor receptor 3 (HER3) (human, UniProt P21860 20-1342)
T1 construct: whole, on cells; also called ErbB3; Erbb3
Assay: flow cytometry on KPL-4 cells
value type: EC50 (µg/mL)
Give bare numbers, in µg/mL.

binder	EC50 / µg/mL
ADC 47A3-A-07-A (antibody, human IgG1, kappa, V domains shown, drug-linker A-07-A on a cysteine sulfhydryl group; LC-DAR1 ratio 0.820; drug-linker A-07-A on cysteine sulfhydryl groups after TCEP reduction; HC-DAR3 ratio 0.760, HC-DAR0 ratio 0.222) VH: EVQLQESGPGLVKPSQTLSLTCAISGDSVSSSQSTWNWIRQSPSRGLEWLGRTFYRSRWYNDYALSMKSRITINPDTSKNQFSLQLNPVTPEDTAVYYCARDTYYYGSGGFDYWGQGSRVTVSS VL: DIQMTQSPSTLSASVGDRVTITCRASQSLSRWLAWYQQKPEKAPKLLIYKASSLESGVPSRFSGSGSGTEFTLTISTLQPDDFATYYCQQYKNYYSFGQGTKLEIKR	0.125

Give one value of EC50 per listed binder.
1. ADC 22B6-B-01 (antibody, human IgG1, kappa, V domains shown, drug-linker B-01 on a cysteine sulfhydryl group; LC-DAR1 ratio 0.999; drug-linker B-01 on cysteine sulfhydryl groups after TCEP reduction; mainly 3 per heavy chain (HC-DAR3 ratio 0.933)) VH: EVHLVESGGGVVQPGRSLRLSCATSGFTFRSYGMHWVRQAPGKGLEWVAVIWYDGSNKYYADSVKGRFTISRDISKNTLYLQMNSLTAEDTAVYYCARYYYDSNGYYDAFDIWGQGTMVTVSS VL: DIQLTQSPSFLSASVGDRVTITCRASQGISNYLAWYQQKPGKAPKLLIFAASTLQSGVPSRFSGSGSGAEFTLTISSLEPEDFATYYCQQLNSYPITFGQGTRLEIKR
2. ADC 22B6-A-07-A-1 (antibody, human IgG1, kappa, V domains shown, drug-linker A-07-A on a cysteine sulfhydryl group; mainly 1 per light chain (LC-DAR1 ratio 0.998); drug-linker A-07-A on cysteine sulfhydryl groups after TCEP reduction; mainly 3 per heavy chain (HC-DAR3 ratio 0.966)) VH: EVHLVESGGGVVQPGRSLRLSCATSGFTFRSYGMHWVRQAPGKGLEWVAVIWYDGSNKYYADSVKGRFTISRDISKNTLYLQMNSLTAEDTAVYYCARYYYDSNGYYDAFDIWGQGTMVTVSS VL: DIQLTQSPSFLSASVGDRVTITCRASQGISNYLAWYQQKPGKAPKLLIFAASTLQSGVPSRFSGSGSGAEFTLTISSLEPEDFATYYCQQLNSYPITFGQGTRLEIKR
3. ADC 100H7-A-07-A (antibody, human IgG1, kappa, V domains shown, drug-linker A-07-A on a cysteine sulfhydryl group; LC-DAR1 ratio 1.000; drug-linker A-07-A on cysteine sulfhydryl groups after TCEP reduction; mainly 3 per heavy chain (HC-DAR3 ratio 0.989)) VH: EVQLVESGGGVVLPGRSLRLSCAASGFTFSRNAMHWVRQAPGKGLEWVAVIWHDGSNKYYGDSVKGRFTISRDNSKNTLYLQMDSLTAEDTAVYYCARDRGASDFRGQGTLVTVSS VL: DIQMTQSPSTLSASVGDRVTITCRASQSINNWLAWYQQKPEKAPKLLIYKASSLESGVPSRFSGSGSGTEFTLTISSLQPDDFATYYCQQYNSYSLTFGGGTKVEIKR

1. 0.0519
2. 0.0325
3. 0.274
